Where do these numbers come from? They come from ChEMBL document CHEMBL5096184.

# Test system: Plasmodium falciparum
# method_description: Antiplasmodial activity against chloroquine sensitive Plasmodium falciparum K1
# Type: functional, organism-based
measure_name: IC50 (µM)
Answers are plain numbers, in µM.

Task: Give recorded IC50. CC(=O)OC1=CO[C@@H](O[C@@H]2O[C@H](CO)[C@@H](O)[C@H](O)[C@H]2O)[C@H]2[C@@H]1C[C@@]13O[C@@H]2CN1CCC1c2ccccc2NC13 (some centres not stated)
Result: 6.77

Next item in the queue.
Task: Give recorded IC50. O=c1c(O[C@@H]2OC[C@](O)(CO[C@@H]3O[C@H](CO)[C@@H](O)[C@H](O)[C@H]3O)[C@H](O)[C@H]2O)cc2nccc3c4ccccc4n1c23
Result: 25
